Target: T1, c-erbB-2 ECD with a Ser-Gly-His6 C-terminal fusion (UniProt P04626 23-652)
T1 construct: extracellular domain; Expressed from CHO cells, IMAC purified; coupled to a CM5 chip, coated on plates, or biotinylated with NHS-LC-biotin; also called c-erbB-2 extracellular domain; biotinylated c-erbB-2 ECD
Test: SPR BIAcore
outcome.measure: pKd
API: returns pKd as number; meaning -log10 of concentration in mol/L.

I'd like to know its pKd. The binder in question is C6HL3-10 (scFv, label as printed (probably C6ML3-10)) scFv: QVQLLQSGAELKKPGESLKISCKGSGYSFTSYWIAWVRQMPGKGLEYMGLIYPGDSDTKYSPSFQGQVTISVDKSVSTAYLQWSSLKPSDSAVYFCARHDVGYCSSSNCAKWPEYFQHWGQGTLVTVSSGGGGSGGGGSGGGGSQSVLTQPPSVSAAPGQKVTISCSGSSSNIGNNYVSWYQQLPGTAPKLLIYGHTNRPAGVPDRFSGSKSGTSASLAISGFRSEDEADYYCAAWEDPWYGWVFGGGTKLTVLG
8.64

Now consider C6ML3-1 (scFv) scFv: QVQLLQSGAELKKPGESLKISCKGSGYSFTSYWIAWVRQMPGKGLEYMGLIYPGDSDTKYSPSFQGQVTISVDKSVSTAYLQWSSLKPSDSAVYFCARHDVGYCSSSNCAKWPEYFQHWGQGTLVTVSSGGGGSGGGGSGGGGSQSVLTQPPSVSAAPGQKVTISCSGSSSNIGNNYVSWYQQLPGTAPKLLIYGHTNRPAGVPDRFSGSKSGTSASLAISGFRSEDEADYYCAAWDYSLWGWVFGGGTKLTVLG and answer again.
8.17

Proceed to C6ML3-14 (scFv) scFv: QVQLLQSGAELKKPGESLKISCKGSGYSFTSYWIAWVRQMPGKGLEYMGLIYPGDSDTKYSPSFQGQVTISVDKSVSTAYLQWSSLKPSDSAVYFCARHDVGYCSSSNCAKWPEYFQHWGQGTLVTVSSGGGGSGGGGSGGGGSQSVLTQPPSVSAAPGQKVTISCSGSSSNIGNNYVSWYQQLPGTAPKLLIYGHTNRPAGVPDRFSGSKSGTSASLAISGFRSEDEADYYCAAWDDPLWGWVFGGGTKLTVLG
9.00
